test-description: probe aLefty1 binding on compound microarray – biochemical, small-molecule microarray, 635/667 nm fluorescence, primary screen (AID 1153);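 also: score merges spot fluorescence with signal-to-noise ratio from the scanned slide images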
cond: higher = more signal
measurement-label: composite z-score
Give bare numbers.

| compound | composite z-score |
| --- | --- |
| C=CCNC(=O)[C@H]1[C@@H]2C(=O)O[C@@H](c3ccccc3)[C@@H](c3ccccc3)N2[C@@H](c2ccc(O)cc2)[C@]12C(=O)Nc1ccc(C#CCCO)cc12 | 0.117 |

I need composite z-score for every entry listed below, if you could help.
1. COC(=O)c1c(CC[C@@H](CO)NC(=O)NCCc2c[nH]c3ccccc23)oc(C(=O)Cc2ccccc2)c1C(=O)OC
2. COCCOC(=O)N1C(=O)[C@@]2(c3ccccc31)[C@H](c1ccc(OCCO)cc1)N1[C@H](c3ccccc3)[C@H](c3ccccc3)OC(=O)[C@H]1[C@@H]2C(=O)N1CCc2cc(OC)c(OC)cc2C1
3. C=C(CCCC)C(=O)CC[C@@H](OC(C)=O)c1ccc(CO)o1
4. OB1C=CCC(CCc2ccccc2)O1 (configuration not stated)
5. COC(=O)C[C@H]1O[C@@H](CCc2ccccc2)[C@@H](C)[C@@H]1[Si](C)(C)c1ccc(OC)cc1
6. CCN(CC)c1ccc(N2CC=CC34O[C@@H]5C=CCOC(=O)[C@@H]5[C@H]3C(=O)N(CCCCCCO)[C@@H]4C2=O)cc1 (some centres not stated)

Completion:
1. -0.423
2. 0.358
3. -0.0278
4. -0.0651
5. -0.188
6. 0.176

Reference source for all entries: PubChem BioAssay
